List of IC50 values.
System: Hep-G2
assayName: Cell growth inhibition, Hep-G2
Assay type: cell-based
runParameters: Homo sapiens, HepG2, NI = No Inhibition at 100 uM
assayEndpoint: IC50 (µM)

INSERT INTO assay_data (molecule, assayedsystem, assayendpoint, numericreadout) VALUES
  ('CC(=O)OC[C@H]1O[C@H](Oc2ccc3cc(-c4cn(CCCCCCC(=O)NO)nn4)ccc3c2)[C@@H](OC(C)=O)[C@@H](OC(C)=O)[C@@H]1OC(C)=O [Compound 6]', 'Hep-G2', 'IC50', 7.4),
  ('O=C(/C=C/c1ccc2cc(O[C@H]3O[C@H](CO)[C@@H](O)[C@H](O)[C@@H]3O)ccc2c1)NO [Compound 11]', 'Hep-G2', 'IC50', 78.5),
  ('O=C(/C=C/c1ccc(O[C@H]2O[C@H](CO)[C@@H](O)[C@H](O)[C@H]2O)cc1)NO [Compound 12]', 'Hep-G2', 'IC50', 45.3);
